The reported measurements were obtained from the supplement of paper PMC10567573.

B1: TRIB1 (parent)
chain: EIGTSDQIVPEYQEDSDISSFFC

- Variants of: B1
- PROTOCOL_DESCRIPTION: protein stability index of a GFP-peptide fusion (GPS, HEK-293T) (PSI 1-6); higher = more stable;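 further: lentivirally expressed fusions sorted by FACS into six bins by GFP to DsRed ratio, PSI derived from sequencing read proportions per bin multiplied by bin number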
- EXPERIMENTAL_CONTEXT: c terminus: native
RECORDED_METRIC: protein stability index

- ORDERED_RESIDUES: "EIGTSDQIVPEYQEDSDIHSFFC [S19H]"
  OBSERVED: 2.89
- ORDERED_RESIDUES: "EIGTSDQIVPEHQEDSDISSFFC [Y12H]"
  OBSERVED: 4.37
- ORDERED_RESIDUES: "EIGTSDQYVPEYQEDSDISSFFC [I8Y]"
  OBSERVED: 5.08
- ORDERED_RESIDUES: "EIGTSDQIVPEYQEDSDISSFAC [F22A]"
  OBSERVED: 4.11
- ORDERED_RESIDUES: "EIGTSDQIVPEEQEDSDISSFFC [Y12E]"
  OBSERVED: 4.77
- ORDERED_RESIDUES: "EIGTSDQRVPEYQEDSDISSFFC [I8R]"
  OBSERVED: 3.56
- ORDERED_RESIDUES: "EIGTSDQIVPEYQEDSDIRSFFC [S19R]"
  OBSERVED: 3.83
- ORDERED_RESIDUES: "EIGTSDQIVPEYQEDSDISSFFN [C23N]"
  OBSERVED: 3.73
- ORDERED_RESIDUES: "EIGTNDQIVPEYQEDSDISSFFC [S5N]"
  OBSERVED: 2.9
- ORDERED_RESIDUES: "EIGTSDQIVPEYQEDSDISSFYC [F22Y]"
  OBSERVED: 2.03
- ORDERED_RESIDUES: "EIGTSDQIVPEYQEDSDISSFFT [C23T]"
  OBSERVED: 2.1
- ORDERED_RESIDUES: "ESGTSDQIVPEYQEDSDISSFFC [I2S]"
  OBSERVED: 2.94
- ORDERED_RESIDUES: "EIGTSDQIVPEYQEDSDISSWFC [F21W]"
  OBSERVED: 2.89
- ORDERED_RESIDUES: "EIGTSDQIWPEYQEDSDISSFFC [V9W]"
  OBSERVED: 4.34
- ORDERED_RESIDUES: "EIGTSRQIVPEYQEDSDISSFFC [D6R]"
  OBSERVED: 5.04
- ORDERED_RESIDUES: "EIGTSDQIVPEYQEDSDIESFFC [S19E]"
  OBSERVED: 2.83
- ORDERED_RESIDUES: "EIGTSDQIVPEYQFDSDISSFFC [E14F]"
  OBSERVED: 2.33
